B1: tRNA (parent)
chain: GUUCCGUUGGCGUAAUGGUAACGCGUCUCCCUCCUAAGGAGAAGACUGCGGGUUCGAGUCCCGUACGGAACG

- Variants of: B1
- test details: yeast fitness, log relative to wild type (ln ratio); higher = fitter; tRNA-Arg(CCU), competitive growth, 37 C, 1 M NaCl
# binning rule on yeast fitness (ln): bucket A (below -0.3), bucket B (-0.3 to below -0.2), bucket C (-0.2 or more)

variant_notation="G1A C27U A43C C66U A69G A70U C71U" category="bucket A"
variant_notation="C46U C66U A69G A70G" category="bucket B"

Into which bin does this variant go? A69G A70G
bucket C

Looking at G1A U2C G6A C66A A70G C71U , which class would you pick?
bucket C

// return the class label for U2G G6A C27U C46U A70G
bucket C

Form field 'band' for U2G G6A C66U A69G C71U
bucket B

Hello team, could you let me know which band the following variant falls into: G1A U2G A43C C46U C66U
bucket C

Form: Item = U2G G6U C66A A69G A70G C71U ; Class = ?
bucket C

Exam item: assign G1A U2C C27U A43C A69G A70U C71U to the correct category.
bucket A

Hi there! Could you help me figure out the category for U2G G6A A43C A69G A70U C71U please?
bucket A

Which class holds U2G G6A C27U C66U A70G ?
bucket B

Quick check: band for U2G G6A A43C C46U A70G C71U
bucket B

Please let me know in which category the item G1A U2C C66A A70G C71U belongs.
bucket B

Hi, small favor: classify U2C G6A C27U A43C A70G C71U by its yeast fitness (ln) when you get a moment.
bucket C
